# Protocol description: Plasma concentration in mouse bearing ALK-positive tumor xenografts at 30 mg/kg, po up to 12 hrs
# Assay type: ADME, organism-based
# Parameters: dose 30 mg/kg, route oral
Outcome measure: concentration at 12 h (nM)

> print(dat)
                            compound.string  observed.value
1  COc1cc2c(cc1Nc1ncc(Cl)c(Nc3ccc(N4CCOCC4)cc3OC)n1)CCN(CC(=O)N(C)C)CC2            3000

====

# Protocol description: AUC (0 to t) in Sprague-Dawley rat 5 mg/kg, po
# Type: ADME, organism-based
# Design: dose 5 mg/kg, route oral
# Condition parameters: plasma
Outcome measure: AUC(0-t) (µg·h/mL)

> print(dat)
                            compound.string  unit.string  observed.value
1  COc1cc2c(cc1Nc1ncc(Cl)c(Nc3ccc(N4CCOCC4)cc3OC)n1)CCN(CC(=O)N(C)C)CC2      µg·h/mL             1.4

====

# Protocol description: AUC (0 to t) in Sprague-Dawley rat 1 mg/kg, iv
# Assay type: ADME, organism-based
# Set-up: dose 1 mg/kg, route intravenous
# Condition parameters: plasma
Outcome measure: AUC(0-t) (ng·h/mL)

> print(dat)
                            compound.string  outcome.measure  observed.value
1  COc1cc2c(cc1Nc1ncc(Cl)c(Nc3ccc(N4CCOCC4)cc3OC)n1)CCN(CC(=O)N(C)C)CC2         AUC(0-t)            1020

====

# Protocol description: Oral bioavailability in CD-1 mouse 10 mg/kg
# Assay type: ADME, organism-based
# Condition parameters: in vivo
Outcome measure: bioavailability (%)

> print(dat)
                            compound.string  unit.string  observed.value
1  COc1cc2c(cc1Nc1ncc(Cl)c(Nc3ccc(N4CCOCC4)cc3OC)n1)CCN(CC(=O)N(C)C)CC2            %              64

====

# Test system: Mus musculus
# Protocol description: Cmax in CD-1 mouse 10 mg/kg, po
# Format: ADME, organism-based
# Parameters: dose 10 mg/kg, route oral
# Condition parameters: in vivo
Outcome measure: Cmax (ng/mL)

> print(dat)
                            compound.string  target.system  unit.string  observed.value
1  COc1cc2c(cc1Nc1ncc(Cl)c(Nc3ccc(N4CCOCC4)cc3OC)n1)CCN(CC(=O)N(C)C)CC2   Mus musculus        ng/mL            1190

====

# Protocol description: Half life in CD-1 mouse 1 mg/kg, iv
# Type: ADME, organism-based
# Set-up: dose 1 mg/kg, route intravenous
# Condition parameters: in vivo
Outcome measure: half-life (min)

> print(dat)
                            compound.string  outcome.measure  observed.value
1  COc1cc2c(cc1Nc1ncc(Cl)c(Nc3ccc(N4CCOCC4)cc3OC)n1)CCN(CC(=O)N(C)C)CC2        half-life              42

====

# Protocol description: Half life in Sprague-Dawley rat 1 mg/kg, iv
# Type: ADME, organism-based
# Parameters: dose 1 mg/kg, route intravenous
# Condition parameters: in vivo
Outcome measure: half-life

> print(dat)
                            compound.string  observed.value
1  COc1cc2c(cc1Nc1ncc(Cl)c(Nc3ccc(N4CCOCC4)cc3OC)n1)CCN(CC(=O)N(C)C)CC2          48 min

Origin of measurements: ChEMBL document CHEMBL1641404
